# credit: patent US10961215B2

# ASSAY_SYSTEM: GST tagged LXRbeta LBD (ligand binding domain) (Homo sapiens, UniProt P55055)
# TEST_METHOD_NOTES: LanthaScreen TR-FRET Liver X Receptor Coactivator Assay, LXR beta-LBD (co-activator recruitment; IP and % Emax relative to T0901317)
# SETTINGS: Inflection Point of co-activator recruitment, LXR beta-LBD, TR-FRET
EXPERIMENTAL_READOUT: pEC50
Remember the convention: pEC50 equals -log10 of concentration in molar.

COMPOUND: COc1cccc([C@@](O)(C(=O)N(C)CC[C@H]2CC23CCN(c2ccc(C(=O)NC4CC4)c(Cl)n2)CC3)C(F)(F)F)c1
pEC50: 7.00
//
COMPOUND: CN(C)C(=O)c1ccc(N2CCC([C@@H]3C[C@H]3CNC(=O)[C@@](O)(c3ccccc3)C(F)(F)F)CC2)cc1Cl [Example 15-18]
pEC50: 6.12
//
COMPOUND: COc1cccc([C@@](O)(C(=O)N(C)CCCC2CCN(c3ccc(C(=O)NC4CC4)c(Cl)n3)CC2)C(F)(F)F)c1
pEC50: 6.16
//
COMPOUND: CN(C)C(=O)c1ccc(N2CCC3(CC2)CC3CCCNC(=O)[C@](O)(c2ccccc2)C(F)(F)F)cc1Cl (some centres unmarked)
pEC50: 6.36
//
COMPOUND: COc1cccc([C@@](O)(C(=O)N(C)CC2CC3(CCN(c4ccc(C(=O)N(C)C)c(Cl)n4)CC3)C2)C(F)(F)F)c1
pEC50: 7.46

Q: Answer with reported pEC50 of COc1cccc([C@@](O)(C(=O)N(C)CC2CC(C3CCN(c4ccc(C(=O)N(C)C)c(Cl)n4)CC3)C2)C(F)(F)F)c1 (some centres unmarked)
Ans: 7.33

Q: Answer with reported pEC50 of CN(C)C(=O)c1ccc(N2CCC(CCCN(C)C(=O)C3(c4ccccc4)CCCC3)CC2)nc1Cl
Ans: 7.04

====

# ASSAY_SYSTEM: GST tagged LXRbeta LBD (ligand binding domain) (Homo sapiens, UniProt P55055)
# Construct: purchased Invitrogen pv4658.pps
# TEST_METHOD_NOTES: LanthaScreen TR-FRET Liver X Receptor Coactivator Assay, LXR beta-LBD (co-activator recruitment; IP and % Emax relative to T0901317)
# Assay type: biochemical
# SETTINGS: efficacy at max dose in relation to reference T0901317, LXR beta-LBD; read-out: LXR beta actiivty at max dose (%)
# Excerpt: […]
EXPERIMENTAL_READOUT: Emax (%)
Entry rule: numbers only, all in %.

COMPOUND: CN(C)C(=O)c1ccc(N2CCC(CCCN(C)C(=O)[C@]3(C(F)(F)F)CCCO3)CC2)nc1Cl
UNIT_ABBREVIATION: %
Emax: 81
--
COMPOUND: COc1cccc([C@@](O)(C(=O)N(C)CCC2CC3(CCN(c4ccc(C(=O)N(C)C)c(Cl)n4)CC3)C2)C(F)(F)F)c1
UNIT_ABBREVIATION: %
Emax: 50
--
COMPOUND: CN(C)C(=O)c1ccc(N2CCC(CCCN(C)C(=O)[C@](O)(c3cccc(OC4CC4)c3)C(F)(F)F)CC2)nc1Cl
UNIT_ABBREVIATION: %
Emax: 44

Q: Answer with reported Emax of CN(C)C(=O)c1ccc(N2CCC(CCCN(C)C(=O)C3(C(F)(F)F)CCCO3)CC2)nc1Cl (stereo not shown)
Ans: 80

====

Known Emax of a selection of molecules
# ASSAY_SYSTEM: GST tagged LXRalpha LBD (ligand binding domain) (Homo sapiens)
# Construct: purchased Invitrogen pv4655
# Sequence (Q13133 209-447 limits assumed): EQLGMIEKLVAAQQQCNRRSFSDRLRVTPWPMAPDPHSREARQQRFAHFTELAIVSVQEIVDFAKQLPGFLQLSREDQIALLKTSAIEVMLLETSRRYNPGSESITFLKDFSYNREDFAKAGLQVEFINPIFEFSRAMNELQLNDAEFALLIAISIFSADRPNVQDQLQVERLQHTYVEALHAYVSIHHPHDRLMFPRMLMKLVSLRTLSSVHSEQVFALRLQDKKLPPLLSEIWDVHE
# TEST_METHOD_NOTES: LanthaScreen TR-FRET Liver X Receptor Coactivator Assay, LXR alpha-LBD (co-activator recruitment; IP and % Emax relative to T0901317)
# Format: biochemical
# SETTINGS: efficacy at max dose in relation to reference T0901317, LXR alpha-LBD; read-out: LXR alpha actiivty at max dose (%)
Entry rule: numbers only, all in %.

Some molecules with recorded Emax:
ENTRY_SMILES: CN(C)C(=O)c1ccc(N2CCC(CCCN(C)C(=O)[C@@](O)(c3cccc(OC(F)F)c3)C(F)(F)F)CC2)nc1Cl
EXPERIMENTAL_READOUT: Emax
REPORTED_RESULT: 18

ENTRY_SMILES: COc1cccc([C@@](O)(C(=O)N(C)CCCC2(F)CCN(c3ccc(C(=O)N(C)C)c(Cl)n3)CC2)C(F)(F)F)c1
EXPERIMENTAL_READOUT: Emax
REPORTED_RESULT: 12

Turning to the following molecule.
Q: Answer with reported Emax of COc1cccc([C@@](O)(C(=O)N(C)CCCC2CCN(c3ccc(C(=O)N(C)CCn4cncn4)c(Cl)n3)CC2)C(F)(F)F)c1
Ans: 14

====

Known Emax of a selection of molecules
# ASSAY_SYSTEM: GST tagged LXRalpha LBD (ligand binding domain) (Homo sapiens, UniProt Q13133)
# Construct: purchased Invitrogen pv4655
# Sequence (Q13133 209-447 limits assumed): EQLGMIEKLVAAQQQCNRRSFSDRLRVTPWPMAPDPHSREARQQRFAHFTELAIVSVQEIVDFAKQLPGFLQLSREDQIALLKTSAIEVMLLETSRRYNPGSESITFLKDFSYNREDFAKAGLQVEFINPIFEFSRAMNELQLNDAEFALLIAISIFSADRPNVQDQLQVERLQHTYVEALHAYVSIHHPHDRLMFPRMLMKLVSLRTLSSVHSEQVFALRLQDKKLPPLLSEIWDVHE
# TEST_METHOD_NOTES: LanthaScreen TR-FRET Liver X Receptor Coactivator Assay, LXR alpha-LBD (co-activator recruitment; IP and % Emax relative to T0901317)
# Format: biochemical
# SETTINGS: efficacy at max dose in relation to reference T0901317, LXR alpha-LBD; read-out: LXR alpha actiivty at max dose (%)
Entry rule: numbers only, all in %.

MOLECULE: CN(C)C(=O)c1ccc(N2CCC(CCCN(C)C(=O)C(O)(c3cccc(O)c3)C(F)(F)F)CC2)nc1Cl (stereo not drawn) [Example 1-45]
EXPERIMENTAL_READOUT: Emax
REPORTED_RESULT: 32
//
MOLECULE: CN(C)C(=O)c1ccc(N2CCC(CCCNC(=O)[C@@](O)(c3cccc(O)c3)C(F)(F)F)CC2)nc1Cl [Example 5-21]
EXPERIMENTAL_READOUT: Emax
REPORTED_RESULT: 36

Q: Answer with reported Emax of COc1cccc([C@@](O)(C(=O)N(C)CCCC2CCN(c3ccc(C(=O)N(C)Cc4noc(C5CC5)n4)c(Cl)n3)CC2)C(F)(F)F)c1 [Example 2-12]
Ans: 40

====

# ASSAY_SYSTEM: GST tagged LXRbeta LBD (ligand binding domain) (Homo sapiens)
# Construct: purchased Invitrogen pv4658.pps
# TEST_METHOD_NOTES: LanthaScreen TR-FRET Liver X Receptor Coactivator Assay, LXR beta-LBD (co-activator recruitment; IP and % Emax relative to T0901317)
# Assay type: biochemical
# SETTINGS: efficacy at max dose in relation to reference T0901317, LXR beta-LBD; read-out: LXR beta actiivty at max dose (%)
EXPERIMENTAL_READOUT: Emax (%)
Entry rule: numbers only, all in %.

COMPOUND: COc1cccc([C@@](O)(C(=O)N(C)CCCC2CCN(c3ccc(C(=O)N(C)C)c(C4CC4)n3)CC2)C(F)(F)F)c1
EXPERIMENTAL_READOUT: Emax
REPORTED_RESULT: 22

Q: Answer with reported Emax of COc1cccc([C@@](O)(C(=O)N(C)CC2CC3(CCN(c4ccc(C(=O)N(C)C)c(Cl)n4)CC3)C2)C(F)(F)F)c1
Ans: 42

Q: Answer with reported Emax of CN(C)C(=O)c1ccc(N2CCC(CCCN(C)C(=O)C3(c4ccccc4)CCC3)CC2)nc1Cl
Ans: 54

Q: Answer with reported Emax of CN(C)C(=O)c1ccc(N2CCC(CCCN(C)C(=O)[C@@]3(c4cccc(Cl)c4)CCCO3)CC2)nc1Cl
Ans: 40

====

Known Emax of a selection of compounds
# ASSAY_SYSTEM: GST tagged LXRbeta LBD (ligand binding domain) (Homo sapiens, UniProt P55055)
# Construct: purchased Invitrogen pv4658.pps
# Sequence (P55055 222-460 limits assumed): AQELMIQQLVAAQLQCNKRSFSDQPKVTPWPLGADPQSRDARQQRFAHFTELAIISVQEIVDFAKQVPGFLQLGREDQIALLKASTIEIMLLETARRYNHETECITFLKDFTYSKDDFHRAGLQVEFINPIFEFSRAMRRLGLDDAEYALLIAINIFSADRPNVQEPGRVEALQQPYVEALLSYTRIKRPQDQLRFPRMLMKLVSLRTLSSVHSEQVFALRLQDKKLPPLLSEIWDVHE
# TEST_METHOD_NOTES: LanthaScreen TR-FRET Liver X Receptor Coactivator Assay, LXR beta-LBD (co-activator recruitment; IP and % Emax relative to T0901317)
# Assay type: biochemical
# SETTINGS: efficacy at max dose in relation to reference T0901317, LXR beta-LBD; read-out: LXR beta actiivty at max dose (%)
Entry rule: numbers only, all in %.

ENTRY_SMILES: CC(C)[C@](O)(C(=O)N(C)CCCC1CCN(c2ccc(C(=O)N(C)C)c(Cl)n2)CC1)C(F)(F)F
Emax, %: 92
//
ENTRY_SMILES: COc1cccc([C@@](O)(C(=O)NCC[C@H]2CC23CCN(c2ccc(C(=O)N(C)C(C)C)c(Cl)c2)CC3)C(F)(F)F)c1
Emax, %: 49

Turning to the following compound.
Q: Answer with reported Emax of COc1cccc([C@@](O)(C(=O)N(C)[C@H]2C[C@H](C3CCN(c4ccc(C(=O)N(C)C)c(Cl)n4)CC3)C2)C(F)(F)F)c1
Ans: 65
